- target.or.system: human Cav2.2 (Homo sapiens, UniProt Q00975)
- Sequence (Q00975 whole entry): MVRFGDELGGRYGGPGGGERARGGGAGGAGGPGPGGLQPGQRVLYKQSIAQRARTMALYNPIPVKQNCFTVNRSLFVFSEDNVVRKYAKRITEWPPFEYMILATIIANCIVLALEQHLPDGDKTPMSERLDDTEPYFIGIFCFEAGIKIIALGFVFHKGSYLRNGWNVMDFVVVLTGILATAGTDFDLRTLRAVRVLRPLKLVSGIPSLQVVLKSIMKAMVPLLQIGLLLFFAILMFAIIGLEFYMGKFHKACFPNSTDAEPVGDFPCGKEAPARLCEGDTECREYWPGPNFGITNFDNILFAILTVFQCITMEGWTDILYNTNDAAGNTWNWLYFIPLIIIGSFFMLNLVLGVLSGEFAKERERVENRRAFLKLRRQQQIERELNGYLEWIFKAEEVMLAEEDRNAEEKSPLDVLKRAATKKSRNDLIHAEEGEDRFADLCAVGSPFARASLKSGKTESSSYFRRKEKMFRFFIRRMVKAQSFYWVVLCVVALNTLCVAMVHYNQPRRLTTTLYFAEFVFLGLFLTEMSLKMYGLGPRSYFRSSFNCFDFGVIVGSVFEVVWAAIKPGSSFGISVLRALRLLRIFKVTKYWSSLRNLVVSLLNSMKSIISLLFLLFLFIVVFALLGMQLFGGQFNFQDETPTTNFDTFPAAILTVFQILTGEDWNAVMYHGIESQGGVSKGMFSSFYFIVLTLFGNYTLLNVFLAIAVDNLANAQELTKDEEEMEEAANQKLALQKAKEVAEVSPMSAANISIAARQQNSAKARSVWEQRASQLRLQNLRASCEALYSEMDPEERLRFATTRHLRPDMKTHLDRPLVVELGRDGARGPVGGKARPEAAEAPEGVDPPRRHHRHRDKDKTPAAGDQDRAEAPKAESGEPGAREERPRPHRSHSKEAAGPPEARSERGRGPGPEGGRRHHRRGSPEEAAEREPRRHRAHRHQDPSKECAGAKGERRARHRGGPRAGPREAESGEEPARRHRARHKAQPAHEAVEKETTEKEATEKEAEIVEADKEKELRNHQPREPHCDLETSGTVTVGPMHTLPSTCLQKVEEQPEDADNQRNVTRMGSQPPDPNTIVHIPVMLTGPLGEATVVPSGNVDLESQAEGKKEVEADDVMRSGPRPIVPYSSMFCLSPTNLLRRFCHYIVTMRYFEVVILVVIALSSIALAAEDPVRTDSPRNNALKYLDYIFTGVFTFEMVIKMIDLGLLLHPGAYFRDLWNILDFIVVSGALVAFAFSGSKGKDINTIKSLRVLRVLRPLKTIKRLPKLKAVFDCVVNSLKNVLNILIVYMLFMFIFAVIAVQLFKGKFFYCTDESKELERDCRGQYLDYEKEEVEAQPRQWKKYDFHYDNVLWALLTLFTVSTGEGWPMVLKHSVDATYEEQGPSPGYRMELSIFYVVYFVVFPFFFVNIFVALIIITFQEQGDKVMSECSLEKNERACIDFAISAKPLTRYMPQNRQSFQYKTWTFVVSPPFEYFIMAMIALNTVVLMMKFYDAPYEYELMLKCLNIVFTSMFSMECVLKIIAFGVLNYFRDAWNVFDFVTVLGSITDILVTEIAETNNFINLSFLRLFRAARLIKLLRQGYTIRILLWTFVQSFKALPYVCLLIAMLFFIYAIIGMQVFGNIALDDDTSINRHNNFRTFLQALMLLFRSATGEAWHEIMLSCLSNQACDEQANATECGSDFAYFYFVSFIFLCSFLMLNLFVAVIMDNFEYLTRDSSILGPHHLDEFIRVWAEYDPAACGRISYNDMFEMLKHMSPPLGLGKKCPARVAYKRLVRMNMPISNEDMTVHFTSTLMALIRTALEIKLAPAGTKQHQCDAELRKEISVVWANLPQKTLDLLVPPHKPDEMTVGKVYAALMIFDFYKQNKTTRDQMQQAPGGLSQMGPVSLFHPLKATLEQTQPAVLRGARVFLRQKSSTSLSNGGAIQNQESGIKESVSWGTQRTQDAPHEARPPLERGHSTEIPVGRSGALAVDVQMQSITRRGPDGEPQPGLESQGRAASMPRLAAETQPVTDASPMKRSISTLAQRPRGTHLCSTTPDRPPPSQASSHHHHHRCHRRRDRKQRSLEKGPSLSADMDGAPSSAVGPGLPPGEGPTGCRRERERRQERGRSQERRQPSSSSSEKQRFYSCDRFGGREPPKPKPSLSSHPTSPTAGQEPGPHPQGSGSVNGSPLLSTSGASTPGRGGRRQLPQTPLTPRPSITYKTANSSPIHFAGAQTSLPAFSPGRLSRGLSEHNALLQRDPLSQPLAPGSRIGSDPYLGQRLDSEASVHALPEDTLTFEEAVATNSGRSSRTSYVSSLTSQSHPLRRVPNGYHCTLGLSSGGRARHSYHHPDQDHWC
- Sequence (P54289 25-951 partner limits assumed): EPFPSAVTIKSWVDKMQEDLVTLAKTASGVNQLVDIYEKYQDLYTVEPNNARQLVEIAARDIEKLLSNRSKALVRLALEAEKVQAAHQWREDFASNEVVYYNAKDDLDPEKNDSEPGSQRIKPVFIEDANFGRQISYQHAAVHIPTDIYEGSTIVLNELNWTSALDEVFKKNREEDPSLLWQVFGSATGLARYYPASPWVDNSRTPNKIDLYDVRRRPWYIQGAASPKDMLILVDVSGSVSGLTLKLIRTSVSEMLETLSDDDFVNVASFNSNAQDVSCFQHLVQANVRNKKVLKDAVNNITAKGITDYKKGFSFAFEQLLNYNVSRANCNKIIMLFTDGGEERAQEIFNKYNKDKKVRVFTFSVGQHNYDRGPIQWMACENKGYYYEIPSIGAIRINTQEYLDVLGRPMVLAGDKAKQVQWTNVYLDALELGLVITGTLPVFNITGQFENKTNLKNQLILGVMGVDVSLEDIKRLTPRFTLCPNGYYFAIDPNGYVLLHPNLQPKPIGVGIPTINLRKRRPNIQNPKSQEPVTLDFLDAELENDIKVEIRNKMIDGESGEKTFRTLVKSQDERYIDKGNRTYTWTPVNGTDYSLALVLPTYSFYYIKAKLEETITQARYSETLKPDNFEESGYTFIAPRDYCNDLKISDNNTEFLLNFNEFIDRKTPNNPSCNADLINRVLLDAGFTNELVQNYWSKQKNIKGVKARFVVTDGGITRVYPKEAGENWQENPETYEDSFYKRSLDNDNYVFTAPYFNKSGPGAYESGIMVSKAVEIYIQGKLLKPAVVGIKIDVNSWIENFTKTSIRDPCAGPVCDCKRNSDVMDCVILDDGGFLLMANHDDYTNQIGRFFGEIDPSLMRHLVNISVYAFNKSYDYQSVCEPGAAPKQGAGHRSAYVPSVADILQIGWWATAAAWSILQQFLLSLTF
- Sequence (P54289 952-1103 partner limits assumed): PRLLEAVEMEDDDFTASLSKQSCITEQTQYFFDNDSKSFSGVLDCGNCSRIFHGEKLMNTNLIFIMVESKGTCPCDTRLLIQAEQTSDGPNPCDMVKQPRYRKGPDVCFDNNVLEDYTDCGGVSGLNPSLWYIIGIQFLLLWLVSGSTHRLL
- Sequence (P54284 whole entry partner): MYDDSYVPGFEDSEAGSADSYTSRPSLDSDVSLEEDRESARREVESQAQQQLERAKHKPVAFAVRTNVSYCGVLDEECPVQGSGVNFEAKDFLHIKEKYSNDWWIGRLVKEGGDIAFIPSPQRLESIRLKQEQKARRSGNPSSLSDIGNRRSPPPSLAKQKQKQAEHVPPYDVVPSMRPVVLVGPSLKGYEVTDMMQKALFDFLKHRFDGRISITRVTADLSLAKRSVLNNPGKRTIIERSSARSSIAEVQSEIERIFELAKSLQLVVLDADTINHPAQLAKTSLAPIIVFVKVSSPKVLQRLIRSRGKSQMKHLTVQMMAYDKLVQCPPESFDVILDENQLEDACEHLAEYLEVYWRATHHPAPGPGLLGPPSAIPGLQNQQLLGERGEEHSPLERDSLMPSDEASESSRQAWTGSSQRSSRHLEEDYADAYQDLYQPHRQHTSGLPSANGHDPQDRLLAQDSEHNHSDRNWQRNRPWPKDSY
- measurement.notes: Assessment of calcium channel activity using FLIPR (Ca2+ influx in IMR32 cells)
- measurement.conditions: IMR32 cells endogenously expressing human Cav2.2; 60 minute pre-incubation; 2 μM nifedipine; depolarized with 80 mM KCl, 5 mM CaCl2
quantity.measured: pIC50
As a rule, pIC50 stands for the negative log10 of the concentration, concentration in M.

1) O=C1N(Cc2nc(-c3ccc(C(F)(F)F)nc3)no2)CCC1(c1ccc(F)cc1)c1ccc(F)cc1 = 5.58
2) O=C(CN1CCC(c2ccc(F)cc2)(c2ccc(F)cc2)C1=O)N1CCC(c2ccccc2)(c2ccccc2)C1 = 5.88
3) COc1ccc(OC2CCN(C(=O)CN3CCCC(c4ccccc4)(c4ccccc4)C3=O)CC2)cc1 = 5.24
4) O=C(CN1CCCC(c2ccccc2)(c2ccccc2)C1=O)N1CCOC(c2ccccc2)(c2ccccc2)C1 = 5.22
5) O=C(CN1CCCC(c2ccccc2)(c2ccccc2)C1=O)N1CCC(c2cccc(C(F)(F)F)c2)CC1 = 5.36

Query string: Checklist item: pIC50 tested on human Cav2.2 (Homo sapiens, UniProt Q00975), entry O=C(CN1CCCC(c2ccccc2)(c2ccccc2)C1=O)N[C@H]1CCN(Cc2cccc(C(F)(F)F)c2)C1 , value?
Result string: 5.94

Query string: Item: O=C1N(Cc2nc(-c3cccc(C(F)(F)F)c3)no2)CCCC1(c1ccccc1)c1ccccc1 Test system: human Cav2.2 (Homo sapiens, UniProt Q00975) Read-out: pIC50 Value: ?
Result string: 5.03

Query string: Give recorded pIC50 with human Cav2.2 (Homo sapiens, UniProt Q00975) for the following compound: COc1ccc(C2(c3ccc(OC)cc3)CCCN(CCCN(C)Cc3cc(OC)cc(OC)c3)C2=O)cc1
Result string: 5.82

Query string: Value wanted: pIC50 (human Cav2.2 (Homo sapiens, UniProt Q00975)) of entry O=C(CN1CCC(c2ccccc2)(c2ccccc2)C1=O)Nc1ccc(Cl)cn1
Result string: 5.35

Query string: Item: O=C(CN1CCC(c2ccccc2)(c2ccccc2)C1=O)N1CCC(C(O)(c2ccccc2)c2ccccc2)CC1 Test system: human Cav2.2 (Homo sapiens, UniProt Q00975) Read-out: pIC50 Value: ?
Result string: 6.02

Query string: # query: pIC50 | item O=C(CN1CCCC(c2ccccc2)(c2ccccc2)C1=O)N1CCC(C(O)(c2ccc(F)cc2)c2ccc(F)cc2)CC1 | system: human Cav2.2 (Homo sapiens, UniProt Q00975)
Result string: 5.71

Query string: GET /values?readout=pIC50&system=human Cav2.2 (Homo sapiens, UniProt Q00975)&item= O=C(CN1CCCC(c2ccccc2)(c2ccccc2)C1=O)N1CCC(O)(c2ccc(Cl)c(C(F)(F)F)c2)CC1
Result string: 5.38

Query string: Value wanted: pIC50 (human Cav2.2 (Homo sapiens, UniProt Q00975)) of entry O=C(CN1CCC(c2ccccc2)(c2ccccc2)C1=O)NC(c1ccccc1)c1ccccc1
Result string: 6.01

Query string: Query for human Cav2.2 (Homo sapiens, UniProt Q00975): what pIC50 does the record show for O=C(CN1CCC(c2ccccc2)(c2ccccc2)C1=O)N1CCNC(Cc2ccccc2)C1 (stereo not drawn) ?
Result string: 5.58

Query string: Field: pIC50 (human Cav2.2 (Homo sapiens, UniProt Q00975)). Entry: O=C(CN1CCCC(c2ccccc2)C1=O)NC1(c2ccc(F)cc2)CCC1 (stereo not drawn)
Result string: 5.00
